These entries and their values trace back to PubChem BioAssay (NCI).

Test system: MDA-MB-231 breast
Assay: NCI tumour cell line growth inhibition, 48 h
observed.property: TGI

The cases that follow already have their TGI on record.
molecule: COc1cc(C2c3cc4c(cc3OC(NNC(N)=O)C2C)OCO4)cc(OC)c1O (stereo not given)
observed.property: TGI
value.measured: > 56.9 µM
--
molecule: COC(=O)c1c(O)ccc2c1c1c(n2Cc2cccc(C)c2)C(=O)c2ccccc2C1=O
observed.property: TGI
value.measured: 35.3 µM
--
molecule: COc1ccc(C(SC2C(O)C(CO)OC2n2ccc(N)nc2=O)(c2ccccc2)c2ccc(OC)cc2)cc1 (stereo not given)
observed.property: TGI
value.measured: 30.8 µM
--
molecule: CN(C)c1nc2oc(-c3ccccc3)c(-c3ccccc3)c2c2nnnn12
observed.property: TGI
value.measured: > 100 µM
--
molecule: Cc1ccc(CNc2c3ccccc3nc3cc(NC(=O)CCN4CCCC4)ccc23)cc1
observed.property: TGI
value.measured: 1.98 µM
--
molecule: Cc1c(NC(=O)CSC(=S)N2CCN(Cc3ccccc3)CC2)c(=O)n(-c2ccccc2)n1C
observed.property: TGI
value.measured: > 100 µM
--
molecule: CCCC(=O)NC(Nc1ccc(S(=O)(=O)Nc2nc(C)cc(C)n2)cc1)(C(F)(F)F)C(F)(F)F
observed.property: TGI
value.measured: > 100 µM
--
molecule: CC1(C)CC(C)(C)C1=NNC(N)=O
observed.property: TGI
value.measured: > 100 µM
--
molecule: CN1CC[C@@H](c2c(O)cc(O)c3c(=O)cc(-c4ccccc4Cl)oc23)[C@@H]1CO
observed.property: TGI
value.measured: > 10 µM
--
molecule: Nc1ncnc2c1nnn2C1CCC(CP(=O)(O)O)C1 (stereo not given)
observed.property: TGI
value.measured: > 100 µM

Request the reported TGI associated with `N#Cc1ccccc1-c1nc2c3c(c(N)ccc3n1)C(=O)c1ccccc1-2`
> 100 µM

And what about the molecule `CC[C@H](CO)Nc1nc(NCc2ccccc2)n2ncc(C(C)C)c2n1` ?
9.47 µM

And what about the molecule `CC1(C)[C@H]2CC[C@]1(C)[C@H](OC(=O)NNC(=O)O[C@@H]1C[C@@H]3CC[C@@]1(C)C3(C)C)C2` ?
27.6 µM

And what about the molecule `O=C(O)c1nc(-c2ccccc2)[nH]c1C(=O)O` ?
11.3 µM

And what about the molecule Cn1cc(C2=C(c3cccc(OCC(O)CO)c3)C(=O)NC2=O)c2ccccc21 (stereo not given) ?
> 25 µM

And what about the molecule Cc1cn(Cc2cnnn2CC2OC(n3cc(C)c(=O)[nH]c3=O)CC2O)c(=O)[nH]c1=O (stereo not given) ?
> 100 µM

And what about the molecule `CCOc1ccccc1N=Nc1c(C)[nH]n(-c2nc(-c3ccccc3)cs2)c1=O` ?
> 100 µM

And what about the molecule CCCCCC(C)SC1(C(=O)OC)CC(OC(C)=O)C(NC(C)=O)C([C@H](OC(C)=O)[C@@H](COC(C)=O)OC(C)=O)O1 (stereo not given in full) ?
> 100 µM

And what about the molecule `O=C(Nc1ccc(Cl)cc1)Nc1ccc(Nc2nncc3ccccc23)cc1` ?
15.9 µM

And what about the molecule `COc1cccc(-n2ncc3c(N/N=C/c4ccncc4)ncnc32)c1` ?
> 25 µM
